Target: β5 (Homo sapiens)
Construct: using HEK-293 cell lysate as the enzyme source of D5; endogenous in cells
Assay: Enzymatic inhibitory activity on β5 (HEK-293 cell lysate, Ac-WLA-AMC substrate)
Conditions: 1 hour pre-incubation
Excerpt: β5 is a catalytic subunit of immunoproteasomes. In this experiment, an enzymatic detection platform was established using its hydrolytic enzyme activity and used for compound activity detection. […] We established an enzymatic detection method for compound inhibition on D5 using HEK-293 cell lysate as the enzyme source of D5 and detected the compound inhibitory activity (half inhibitory concentration, IC50). […]
Give pIC50 for every item shown.
The quantity pIC50 is defined as the negative base-10 logarithm of the molar concentration.

Input: What does the data say about its pIC50? Entry: O=C(Nc1cc(Cl)ccn1)C(=O)N[C@@H](Cc1coc2ccccc12)B(O)O [Ex. 49]
Output: 7.21

Input: Item O=C(N[C@@H]1CCOC1)C(=O)N[C@@H](Cc1coc2ccccc12)B(O)O [Ex. 44] has what recorded pIC50?
Output: 7.27

Input: pIC50 for CC1(C)CC(C)(C)OB([C@H](Cc2coc3ccccc23)NC(=O)C(=O)Nc2cnccn2)O1 [Ex. 72] ?
Output: 7.66

Input: What value of pIC50 has been recorded for this entry: CC1(C)OB([C@H](Cc2coc3ccccc23)NC(=O)C(=O)Nc2cnccn2)OC1(C)C [Ex. 19]
Output: 7.91

Input: I'd like to know its pIC50. The compound in question is O=C(N[C@@H](Cc1coc2ccccc12)B(O)O)C(=O)N1CC2COCC2C1 (stereo partly shown) [Ex. 29]
Output: 7.38

Input: I have this compound here, O=C(Nc1nccs1)C(=O)N[C@@H](Cc1coc2ccccc12)B(O)O [Ex. 13] , and I need its recorded pIC50.
Output: 7.23

Input: Requested field: pIC50. Item: O=C(Nc1cnccn1)C(=O)N[C@@H](Cc1coc2ccccc12)B(O)O [Ex. 9]
Output: 7.01

Input: // query pIC50 value for entry Cc1csc(NC(=O)C(=O)N[C@@H](Cc2coc3ccccc23)B(O)O)n1 [Ex. 31]
Output: 7.14

Input: Which measured pIC50 value corresponds to O=C1COB([C@H](Cc2coc3ccccc23)NC(=O)C(=O)Nc2cnccn2)O1 [Ex. 73] ?
Output: 7.68

Input: Report pIC50 for CC1(C)COB([C@H](Cc2coc3ccccc23)NC(=O)C(=O)Nc2cnccn2)OC1 [Ex. 71] please.
Output: 7.55

Input: Please give the measured pIC50 for this compound: Cn1cccc(NC(=O)C(=O)N[C@@H](Cc2coc3ccccc23)B(O)O)c1=O [Ex. 58]
Output: 7.08

Input: Fill blank: measured pIC50 of the compound CC1(C)[C@@H]2C[C@H]3OB([C@H](Cc4coc5ccccc45)NC(=O)C(=O)N[C@@H]4C[C@H]5CC[C@@H]4O5)O[C@@]3(C)[C@H]1C2 [Ex. 51] is ____.
Output: 7.13

Input: Query (compound): CC1(C)[C@@H]2C[C@H]3OB([C@H](Cc4coc5ccccc45)NC(=O)C(=O)Nc4cnccn4)O[C@@]3(C)[C@H]1C2 [Ex. 17] ; field requested: pIC50
Output: 7.52

Input: Which measured pIC50 value corresponds to O=C(N[C@@H](Cc1coc2ccccc12)B(O)O)C(=O)N[C@@H]1C[C@H]2CC[C@@H]1O2 [Ex. 1] ?
Output: 6.81

Input: What value of measured pIC50 is listed for O=C(N[C@H]1CCOC1)C(=O)N[C@@H](Cc1coc2ccccc12)B(O)O [Ex. 7] ?
Output: 6.91

Input: What value of pIC50 has been recorded for this entry: Cn1cccc(NC(=O)C(=O)N[C@@H](Cc2coc3ccccc23)B2O[C@@H]3C[C@@H]4C[C@@H](C4(C)C)[C@]3(C)O2)c1=O [Ex. 57]
Output: 6.85
